System: EKVX NSCLC
Experiment: NCI-60 one-dose screen, 48 h (100 = growth as untreated, 0 = no growth, -100 = all killed)
Conditions: 10 µM unless noted
This is part of a sample that, as a whole, favours compounds with a hit. Of some 83,000 tested, about 20% had one in any assay.
growth under 70% gets satisfied, anything at or over 70% gets not satisfied.

Is the reported growth for NC(=O)c1ccc[n+]([C@@H]2O[C@H](COP(=O)([O-])OP(=O)(O)OC[C@H]3O[C@@H](n4cnc5c(N)ncnc54)[C@H](O)[C@@H]3O)[C@@H](O)[C@H]2O)c1 strictly below 70%?
not satisfied

Now this one: O=C1/C(=C/c2ccc(F)cc2)C=C(c2ccccc2)N1CCc1ccccc1
satisfied

Now this one: COc1cc(C2CC(=O)Nc3c2c(C)nn3-c2nc3ccccc3[nH]2)c(OC)c(OC)c1OC (stereo not drawn)
not satisfied

Now this one: COc1cc2c(cc1-c1c(C)noc1C)ncc1nc(C3CCC(F)(F)CC3)n(C3CCC(OC(F)F)CC3)c12 (stereo not drawn)
satisfied

Now this one: O=C(Nc1ccccc1Cl)Oc1ccc(-c2ccccc2)cc1
not satisfied

Now this one: Cc1ccc2nc(NC(=O)CSc3nc(-c4ccccc4)c(C#N)c(=O)n3Cc3ccccc3)sc2c1
not satisfied

Cited source: PubChem BioAssay (NCI)
